Biological target: C-X-C chemokine receptor type 4 (Homo sapiens, UniProt P61073, I259W)
Sequence (P61073 whole entry I259W): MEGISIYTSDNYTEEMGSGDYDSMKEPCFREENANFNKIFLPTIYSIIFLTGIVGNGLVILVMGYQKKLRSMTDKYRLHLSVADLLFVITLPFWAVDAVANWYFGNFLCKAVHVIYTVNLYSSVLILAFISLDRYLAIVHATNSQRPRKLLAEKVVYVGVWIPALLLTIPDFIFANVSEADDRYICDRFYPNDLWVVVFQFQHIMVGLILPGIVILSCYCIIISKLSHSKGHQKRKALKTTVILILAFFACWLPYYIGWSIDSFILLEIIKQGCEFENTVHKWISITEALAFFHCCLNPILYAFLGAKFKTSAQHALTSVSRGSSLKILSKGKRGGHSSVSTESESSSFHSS
Assay: Antagonist activity at human CXCR4 I259W mutant expressed in COS7 cells coexpressing G protein Gqi4myr assessed as inhibition of CXCL12-induced phosphatidylinositol turnover
Format: functional, cell-based, COS-7
pKi: −log10 of the molar value.
OBSERVABLE: pKi

smiles_repr=c1ccc(CNCc2ccc(CN3CCCNCCNCCCNCC3)cc2)nc1 experimental_value=7.10
smiles_repr=Cc1ccc(CN2CCCNCCNCCCNCC2)cc1 experimental_value=4.62
smiles_repr=c1ccc(CNCc2ccc(CN3CCCNCCNCCCNCC3)cc2)cc1 experimental_value=5.51
